System: S30 extract peptidyltransferase
Test: Peptidyltransferase gel-shift assay in the presence of antibiotics, S30 extract
Assay type: biochemical, E. coli
Details: 100 μM antibiotic, substrates CCA-Met-Biotin and 32P-CCA-NH-Phe, 37° C.
quantity kind: Inhibition of peptidyltransferase activity (gel-shift, FIG. 10A)

Requested read-out: Inhibition of peptidyltransferase activity (gel-shift, FIG. 10A). Entry: CC[C@H]1OC(=O)[C@H](C)[C@@H](O[C@H]2C[C@@](C)(OC)[C@@H](O)[C@H](C)O2)[C@H](C)[C@@H](O[C@@H]2O[C@H](C)C[C@H](N(C)C)[C@H]2O)[C@](C)(O)C[C@@H](C)C(=O)[C@H](C)[C@@H](O)[C@]1(C)O [erythromycin] greatly inhibited

Then O=C(N[C@H](CO)[C@H](O)c1ccc([N+](=O)[O-])cc1)C(Cl)Cl [chloramphenicol] ? greatly inhibited

And the next one, CSC[S@+]([O-])C[C@H](CO)NC(=O)/C=C/c1c(C)[nH]c(=O)[nH]c1=O [sparsomycin] ? greatly inhibited
